# Protocol Description: Study KAR5585-101 Part 1 (SAD): plasma pharmacokinetics after a single oral dose of KAR5585, fasting and fed (incl. dose proportionality and food effect)
# Setup Conditions: human, plasma, po, 700 mg, AUC0-12, KAR5417 after 700 mg KAR5585 single oral, fasted, Cohort 4; Mean
Measured Metric: AUC(0-t)
Just the number plus its unit, please.

Entry Nc1nc(O[C@H](c2ccc(Cl)cc2-c2ccccc2)C(F)(F)F)cc(N2CCC3(CC2)CN[C@H](C(=O)O)C3)n1 ; AUC(0-t) = 4350 ng·h/mL

* * *

# Protocol Description: Study KAR5585-101 Part 1 (SAD): plasma pharmacokinetics after a single oral dose of KAR5585, fasting and fed (incl. dose proportionality and food effect)
# Setup Conditions: human, plasma, po, 100 mg, AUC0-24, KAR5417 after 100 mg KAR5585 single oral, fasted, Cohort 1; Geo. Mean
Measured Metric: AUC(0-t) (ng·h/mL)
Write it as a number; the unit ng·h/mL goes unstated.

The recorded AUC(0-t) for Nc1nc(O[C@H](c2ccc(Cl)cc2-c2ccccc2)C(F)(F)F)cc(N2CCC3(CC2)CN[C@H](C(=O)O)C3)n1 [KAR5417] is 816

* * *

# Protocol Description: Study KAR5585-101 Part 1 (SAD): plasma pharmacokinetics after a single oral dose of KAR5585, fasting and fed (incl. dose proportionality and food effect)
# Setup Conditions: human, plasma, po, 400 mg, Cmax, 400 mg KAR5585 single oral, fed, Cohort 3B; Mean
Measured Metric: Cmax (µg/mL)
Expressed in µg/mL, but write only the number.

Cmax recorded for this molecule, CCOC(=O)[C@@H]1CC2(CCN(c3cc(O[C@H](c4ccc(Cl)cc4-c4ccccc4)C(F)(F)F)nc(N)n3)CC2)CN1 , is 0.169

* * *

# Protocol Description: clinical
# Setup Conditions: human, plasma, oral, 400 mg
Measured Metric: Tmax (h)
Give just the number in h; leave the unit off.

Briefly, Tmax measured for CCOC(=O)[C@@H]1CC2(CCN(c3cc(O[C@H](c4ccc(Cl)cc4-c4ccccc4)C(F)(F)F)nc(N)n3)CC2)CN1 [KAR5585] : 2

* * *

# Protocol Description: Study KAR5585-101 Part 1 (SAD): plasma pharmacokinetics after a single oral dose of KAR5585, fasting and fed (incl. dose proportionality and food effect)
# Setup Conditions: human, plasma, po, 2000 mg, AUC0-∞, 2000 mg KAR5585 single oral, fasted, Cohort 6; Geo. Mean
Measured Metric: AUC(0-inf) (ng·h/mL)
Numeric only. Scale: ng·h/mL

Lab note: CCOC(=O)[C@@H]1CC2(CCN(c3cc(O[C@H](c4ccc(Cl)cc4-c4ccccc4)C(F)(F)F)nc(N)n3)CC2)CN1 gave AUC(0-inf) of 667

* * *

# Protocol Description: Part 1 (SAD): urine pharmacokinetics (amount excreted, renal clearance) after a single oral dose of KAR5585
# Type: in vivo, human
# Setup Conditions: human, urine and plasma, po, 100 mg, KAR5417; 100 mg KAR5585 single oral dose; mean; read-out: CLR (converted)
Measured Metric: CL renal
Your reply should be a number followed by the unit it is expressed in.

GET /value?item= Nc1nc(O[C@H](c2ccc(Cl)cc2-c2ccccc2)C(F)(F)F)cc(N2CCC3(CC2)CN[C@H](C(=O)O)C3)n1 &field=CL renal returns 4.93 mL/min

* * *

# Protocol Description: Study KAR5585-101 Part 1 (SAD): plasma pharmacokinetics after a single oral dose of KAR5585, fasting and fed (incl. dose proportionality and food effect)
# Setup Conditions: human, plasma, po, 2000 mg, Cmax, 2000 mg KAR5585 single oral, fasted, Cohort 6; Geo. Mean
Measured Metric: Cmax (µg/mL)
# output: bare number, implied unit µg/mL

According to the records, this compound CCOC(=O)[C@@H]1CC2(CCN(c3cc(O[C@H](c4ccc(Cl)cc4-c4ccccc4)C(F)(F)F)nc(N)n3)CC2)CN1 displays Cmax of 0.0951

* * *

# Protocol Description: Study KAR5585-101 Part 1 (SAD): plasma pharmacokinetics after a single oral dose of KAR5585, fasting and fed (incl. dose proportionality and food effect)
# Setup Conditions: human, plasma, po, 200 mg, AUC0-24, KAR5417 after 200 mg KAR5585 single oral, fasted, Cohort 2; Mean
Measured Metric: AUC(0-t) (ng·h/mL)
Just the number in ng·h/mL, nothing appended.

Noted for Nc1nc(O[C@H](c2ccc(Cl)cc2-c2ccccc2)C(F)(F)F)cc(N2CCC3(CC2)CN[C@H](C(=O)O)C3)n1 : its AUC(0-t) reads 1160

* * *

# Protocol Description: Study KAR5585-101 Part 1 (SAD): plasma pharmacokinetics after a single oral dose of KAR5585, fasting and fed (incl. dose proportionality and food effect)
# Setup Conditions: human, plasma, po, 100 mg, Cmax, 100 mg KAR5585 single oral, fasted, Cohort 1; Geo. Mean
Measured Metric: Cmax (ng/mL)
Could you give me the number in ng/mL? Just the number is fine.

Cmax reported for this compound CCOC(=O)[C@@H]1CC2(CCN(c3cc(O[C@H](c4ccc(Cl)cc4-c4ccccc4)C(F)(F)F)nc(N)n3)CC2)CN1 : 13.2

* * *

# Protocol Description: Study KAR5585-101 Part 1 (SAD): plasma pharmacokinetics after a single oral dose of KAR5585, fasting and fed (incl. dose proportionality and food effect)
# Setup Conditions: human, plasma, po, 200 mg, Cmax, KAR5417 after 200 mg KAR5585 single oral, fasted, Cohort 2; Mean
Measured Metric: Cmax (ng/mL)
Note: unit ng/mL is implicit; provide only the numeric part.

Entry Nc1nc(O[C@H](c2ccc(Cl)cc2-c2ccccc2)C(F)(F)F)cc(N2CCC3(CC2)CN[C@H](C(=O)O)C3)n1 — recorded Cmax = 160

* * *

# Protocol Description: Study KAR5585-101 Part 1 (SAD): plasma pharmacokinetics after a single oral dose of KAR5585, fasting and fed (incl. dose proportionality and food effect)
# Setup Conditions: human, plasma, po, 100 mg, Cmax, 100 mg KAR5585 single oral, fasted, Cohort 1; Mean
Measured Metric: Cmax
Give the value; after it, write the unit.

Recorded result, CCOC(=O)[C@@H]1CC2(CCN(c3cc(O[C@H](c4ccc(Cl)cc4-c4ccccc4)C(F)(F)F)nc(N)n3)CC2)CN1 , Cmax: 13.9 ng/mL

* * *

# Protocol Description: Study KAR5585-101 Part 1 (SAD): plasma pharmacokinetics after a single oral dose of KAR5585, fasting and fed (incl. dose proportionality and food effect)
# Setup Conditions: human, plasma, po, 200 mg, Plasma AUC0-96, KAR5417 in plasma; 200 mg KAR5585 single oral dose; mean
Measured Metric: AUC(0-t) (ng·h/mL)
Unit ng·h/mL implied. Number only.

// field: AUC(0-t); key: Nc1nc(O[C@H](c2ccc(Cl)cc2-c2ccccc2)C(F)(F)F)cc(N2CCC3(CC2)CN[C@H](C(=O)O)C3)n1 ; value = 1240

* * *

# Protocol Description: Study KAR5585-101 Part 1 (SAD): plasma pharmacokinetics after a single oral dose of KAR5585, fasting and fed (incl. dose proportionality and food effect)
# Setup Conditions: human, plasma, po, 400 mg, AUC0-tau, KAR5417 after 400 mg KAR5585 single oral, fasted, Cohort 3A; Mean
Measured Metric: AUC
A complete answer gives the number and then names the unit.

Sure, the documented AUC for Nc1nc(O[C@H](c2ccc(Cl)cc2-c2ccccc2)C(F)(F)F)cc(N2CCC3(CC2)CN[C@H](C(=O)O)C3)n1 [KAR5417] is 3500 ng·h/mL

* * *

# Protocol Description: Study KAR5585-101 Part 1 (SAD): plasma pharmacokinetics after a single oral dose of KAR5585, fasting and fed (incl. dose proportionality and food effect)
# Setup Conditions: human, plasma, po, 400 mg, AUC0-∞, 400 mg KAR5585 single oral, fasted, Cohort 3A; Mean
Measured Metric: AUC(0-inf) (ng·h/mL)
Respond with the bare value in ng·h/mL.

Kindly note the recorded AUC(0-inf) for CCOC(=O)[C@@H]1CC2(CCN(c3cc(O[C@H](c4ccc(Cl)cc4-c4ccccc4)C(F)(F)F)nc(N)n3)CC2)CN1 [KAR5585] , which is 302

* * *

# Protocol Description: Study KAR5585-101 Part 1 (SAD): plasma pharmacokinetics after a single oral dose of KAR5585, fasting and fed (incl. dose proportionality and food effect)
# Setup Conditions: human, plasma, po, 400 mg, AUC0-tau, KAR5417 after 400 mg KAR5585 single oral, fed, Cohort 3B; Geo. Mean
Measured Metric: AUC (ng·h/mL)
Field: numeric (ng·h/mL). Do not append units.

Recorded result, Nc1nc(O[C@H](c2ccc(Cl)cc2-c2ccccc2)C(F)(F)F)cc(N2CCC3(CC2)CN[C@H](C(=O)O)C3)n1 [KAR5417] , AUC: 6360

* * *

# Protocol Description: Study KAR5585-101 Part 1 (SAD): plasma pharmacokinetics after a single oral dose of KAR5585, fasting and fed (incl. dose proportionality and food effect)
# Setup Conditions: human, plasma, po, 2000 mg, AUC0-12, KAR5417 after 2000 mg KAR5585 single oral, fasted, Cohort 6; Geo. Mean
Measured Metric: AUC(0-t) (ng·h/mL)
Use ng·h/mL as the unit, but write only the number.

The compound identified as Nc1nc(O[C@H](c2ccc(Cl)cc2-c2ccccc2)C(F)(F)F)cc(N2CCC3(CC2)CN[C@H](C(=O)O)C3)n1 registered its AUC(0-t) at 6550
